Provenance of the data: patent US20260262643A1

# System: corn
# ASSAY COMMENT: Test A postemergence
# Type: in vivo, Zea mays
# EXPERIMENTAL PARAMETERS: Zea mays, post-emergence, 240 h, 500 g ai/ha, postemergence, 10 days, visual injury, 0 to 100 scale (0 no effect, 100 complete control)
TEST READOUT: Corn plant response rating (crop injury, 0 = no effect, 100 = complete kill) at 500 g/ha (%)

MOLECULE	TEST SYSTEM	UOM	VALUE MEASURED
Cc1ccc(-n2ncnc2C)cc1C(=O)N1C[C@H](C)Oc2c(Cl)cccc21 (single isomer, unassigned) [Compound 126]	corn	%	10
CCc1ncn(-c2ccc(OC)c(C(=O)N3C[C@H](C)Oc4c(Cl)cccc43)c2)n1 [Compound 88]	corn	%	90
Cc1cccc2c1O[C@@H](C)CN2C(=O)c1cccc(-n2cn[nH]c2=O)c1 [Compound 122]	corn	%	60
Cc1ccc(-n2cnc(C3CCC3)n2)cc1C(=O)N1C[C@H](C)Oc2c(Cl)cccc21 [Compound 96]	corn	%	60
CC(C)c1ncn(-c2cc3c(c(C(=O)N4C[C@H](C)Oc5c(Cl)cccc54)c2)OCC3)n1 [Compound 147]	corn	%	90
CCc1ccc(-n2cnc(C(C)C)n2)cc1C(=O)N1C[C@H](C)Oc2c(Cl)cccc21 [Compound 94]	corn	%	90
Cc1ncn(-c2ccc(C)c(C(=O)N3C[C@H](C)Oc4c(Cl)cccc43)c2)n1 (single isomer, unassigned) [Compound 74]	corn	%	90
